targetEntity: porcine kidney diamine oxidase (Sus scrofa, UniProt Q9TRC7)
Sequence (Q9TRC7 25-755): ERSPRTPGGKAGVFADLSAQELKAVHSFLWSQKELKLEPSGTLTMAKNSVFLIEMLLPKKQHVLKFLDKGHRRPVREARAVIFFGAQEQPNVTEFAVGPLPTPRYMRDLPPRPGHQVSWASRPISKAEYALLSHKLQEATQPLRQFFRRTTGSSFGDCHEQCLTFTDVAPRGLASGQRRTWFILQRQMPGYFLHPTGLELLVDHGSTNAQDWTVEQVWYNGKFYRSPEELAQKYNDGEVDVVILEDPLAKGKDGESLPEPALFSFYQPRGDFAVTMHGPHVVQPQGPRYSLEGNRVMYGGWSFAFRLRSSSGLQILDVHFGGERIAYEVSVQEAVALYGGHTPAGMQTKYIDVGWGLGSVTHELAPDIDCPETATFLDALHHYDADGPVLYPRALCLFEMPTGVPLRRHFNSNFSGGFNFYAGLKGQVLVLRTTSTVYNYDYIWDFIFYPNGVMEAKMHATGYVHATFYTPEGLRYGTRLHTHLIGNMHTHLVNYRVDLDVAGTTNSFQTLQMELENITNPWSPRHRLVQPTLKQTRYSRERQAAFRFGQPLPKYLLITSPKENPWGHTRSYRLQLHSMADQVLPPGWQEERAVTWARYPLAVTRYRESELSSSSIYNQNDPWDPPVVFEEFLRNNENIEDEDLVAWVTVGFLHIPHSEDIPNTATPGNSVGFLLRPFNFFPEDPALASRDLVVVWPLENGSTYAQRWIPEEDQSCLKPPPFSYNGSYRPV
observationType: pKi
Remember the convention: pKi equals -log10 of concentration in molar.

Can you share its pKi? I mean this compound: CN(C)C(=N)N=C(N)N [metformin, Metformin]
2.07
